Molecular target: human CLEC12A expressed on cells (human) (UniProt Q5QGZ9)
Sequence (Q5QGZ9 whole entry): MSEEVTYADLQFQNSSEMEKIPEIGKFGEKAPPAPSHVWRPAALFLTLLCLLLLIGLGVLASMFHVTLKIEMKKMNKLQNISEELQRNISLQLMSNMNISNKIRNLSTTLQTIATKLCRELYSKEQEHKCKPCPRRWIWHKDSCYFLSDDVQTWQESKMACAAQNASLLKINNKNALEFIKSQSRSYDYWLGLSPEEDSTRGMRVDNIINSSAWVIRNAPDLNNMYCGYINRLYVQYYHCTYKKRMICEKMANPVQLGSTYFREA
Test: flow cytometry, hCLEC12A+Ba/F3 cells

binder | Max binding MFI (MFI)
AB0191 (bispecific antibody, part only; not given: Fc, unrelated binder arm, linkers, not shown: another chain or arm of the molecule; a dimerising Fc or GST; small tags and cut ends) scFv: EVQLVESGGGVVQPGGSLRLSCAASGFTFNSFGMHWVRQAPGKCLEWVAFISSGSTSIYYANTVKGRFTISRDNSKNTLYLQMNSLRAEDTAVYYCARDGYPTGGAMDYWGQGTSVTVSSGGGGSGGGGSGGGGSGGGGSDIQMTQSPSSLSASVGDRVTITCKASQDIYNYLSWFQQKPGKAPKPLIYRANILVSGVPSRFSGSGSGQDYTFTISSLQPEDIATYYCLQFDAFPFTFGCGTKLEIK | 7940
AB0195 (bispecific antibody, part only; not given: Fc and unrelated binding arm, not shown: another chain or arm of the molecule; a dimerising Fc or GST) scFv: EVQLVESGGGVVQPGGSLRLSCAASGFTFNAFGMHWVRQAPGKCLEWVAFISSGSTSIYYANTVKGRFTISRDNSKNTLYLQMNSLRAEDTAVYYCARDGYPTGGAMDYWGQGTSVTVSSGGGGSGGGGSGGGGSGGGGSDIKMTQSPSSLSASVGDRVTITCKASQDIYNYLSWFQQKPGKAPKPLIYRANILVSGVPSRFSGSGSGQDYTLTISSLQPEDIATYYCLQFDAFPFTFGCGTKLEIK | 10800
AB0192 (bispecific antibody, part only; not given: Fc, unrelated binder arm, linkers, not shown: another chain or arm of the molecule; a dimerising Fc or GST; small tags and cut ends) scFv: EVQLVESGGGVVQPGGSLRLSCAASGFTFNAFGMHWVRQAPGKCLEWVAFISSGSTSIYYANTVKGRFTISRDNSKNTLYLQMNSLRAEDTAVYYCARDGYPTGGAMDYWGQGTSVTVSSGGGGSGGGGSGGGGSGGGGSDIQMTQSPSSLSASVGDRVTITCKASQDIYNYLSWFQQKPGKAPKPLIYRANILVSGVPSRFSGSGSGQDYTFTISSLQPEDIATYYCLQFDAFPFTFGCGTKLEIK | 10200
